These entries and their values trace back to the nanobody polyreactivity screen of Harvey et al. (2022).

# assay-text: yeast display, Sf9 membrane polyspecificity reagent, FACS + sequencing; frameworks hold sequencing errors
property-label: polyreactivity (PSR sort gate)

Below, 5 sequences whose answers are already recorded.
sequence-content: QVQLVESGGGLVQAGGSLRLSCAASGIIFQFYAMGWYRQAPGKERELVAAISRSGGITHYADSVKGRFTISRDTAQNTVYLQMNSLKPEDTAVYYCAAVRQAYPRLDYWGQGTQVTVSS
property-label: polyreactivity (PSR sort gate)
observed-value: high polyreactivity
--
sequence-content: QDQLVESGGGLVQAGGSLRLSCGASGGIFWKYAMGWYRQAPGKERELVAAISRSGSSTYYADSVKGRFTISRDNAKNTVYLQMNSLKPEDTAVYYCAAQPYDSNYGNSGYWGQGTQVTVSS
property-label: polyreactivity (PSR sort gate)
observed-value: high polyreactivity
--
sequence-content: QVQLVESGGGLVKAGGSLRLSCAASGRIFVGYGMGWYRQAPGKERELVAAITSSGGSTYYADSVKGRFTISRDNAKNTVYLQMNILKPEDTAVYYCAAERGYHVGGSGLYDYWGQGTQVNVSS
property-label: polyreactivity (PSR sort gate)
observed-value: low polyreactivity
--
sequence-content: QVQLVESGGGLVQAGGSLRLSCAASGLTSDENAMGWYRQAPGKERELVAVISNSGDSTYYADSVKGRFTISRDTAKNTVYLQLNSLKPEDTAVYNCAADGLSKFDYWGQGTQVTVSS
property-label: polyreactivity (PSR sort gate)
observed-value: low polyreactivity
--
sequence-content: QVQLVESGGGLDQAGGSLRLSCAASGSIIGIYAMGWYRQAPGKERELVAAISWSGGSTYYADSVKGRFTISRDNAKNTVYLQMNSLKPEDTAVYYCAARGHYQYYWGQGTQVTVSS
property-label: polyreactivity (PSR sort gate)
observed-value: low polyreactivity

Q: Fill blank: measured polyreactivity (PSR sort gate) of the sequence `QVQLVESGGGLVQAGGSLRLSCAASGSIFTLYAMGRYRQAPGKERELVAAITWSGGSSYYADSVKGRFTISRDNAKNTVYLQMNSLKPEDTAVYYCAKDYLAGGPWEGLVEREYDYWGQGTQVTVSS` is ____.
A: low polyreactivity

Q: Which polyreactivity (PSR sort gate) value is on record for `QVQLVESGGGLVQAGGSLRLSCAPSGRIFNAYAMGWYRQAPGKERELVAAITVSGTRTYYADSVKGRFTISRDNAKNTVYLQMNSLKPEDSAVYYCNAGRGGVLDYGYWGQGTQVTVSS` ?
A: high polyreactivity

Q: What measured polyreactivity (PSR sort gate) goes with `QVQLVESGGVLLQAGGSLRLSCAASGSIFYPYAMGWYRQAPGKERELFAAITYIDADTYYADSVKGRFTISRDNAKNTVYLQMNSLKPEDTAVYYCAAEIPVYQGTGEDDYWGQGTQVTVSS` ?
A: low polyreactivity

Q: Look up polyreactivity (PSR sort gate) for this sequence: `QVQLVESGGGLVQAGGSLRLSCAASGSTFGLYVMGWYRQAPGKERELVAAINRICSRTYYADSVKGRFTISRDNAKNTVYLQMNSLKPEDTAVYYCAADYDYTSPGDDYWGQGTQVTVSS`
A: high polyreactivity

Q: Requested field: polyreactivity (PSR sort gate). Item: `QVQLVESGGGLDQAGGSLRLICAASGSTFYIYAMGWYRQAPGKEREFVAAIDFSGSSTYADSVKGRFTISRDNAKNPVYLQMNTLKPEDTAVYYCAAYQIYQYDGPYDYWGQGTQVTVSS`
A: low polyreactivity

Q: Find the recorded polyreactivity (PSR sort gate) belonging to `QVQLVESGGGLVQAGGSLRLSCAASGGIFVTYAMVWYRQAPGKERELVAAITSGGTTYYADSVKGRFTISRDNAKNTVYIQMNSLTPEDTAVYYCAARYYPGYYYPPLDYWGQGSQVTVSS` and report it.
A: low polyreactivity

====

# assay-text: yeast display, Sf9 membrane polyspecificity reagent, FACS + sequencing; frameworks hold sequencing errors
property-label: polyreactivity (PSR sort gate)

Example sequences with recorded polyreactivity (PSR sort gate):
sequence-content: QVQLVESGGGLVQAGGSLRLSCAASGRTFYYYVMGWYIQAPGKERELVAAITLRGGSTYYADSVKGRFTISRDNAKNTVYLQMNSLKPEDTAVYYCNARGGSSTYGNYYWGQGTQVTVSS
polyreactivity (PSR sort gate): low polyreactivity
--
sequence-content: QVQLVESGGGLVQAGGSLRLSCAASGITIYKNAMGWYRQAPGKERELFAAITRGGSTYYADSVKGRFTISRDNAKNTVYLQMNCLKPEDTAVYYCNKVYHWQTPGFGYGYWGQGTQVTVST
polyreactivity (PSR sort gate): high polyreactivity
--
sequence-content: QVQLVESGGGLVQAGGSLRLSCAASGRTFYEYAKGWYRQAPGKERELVAGITSGGSTNYADSVKGRFTISRDNEKNTVYLQMNSLKPEDTAVYYCAASYWGYEYDYWGQGTQVTVSS
polyreactivity (PSR sort gate): low polyreactivity
--
sequence-content: QVQLVESGGGLVQAGGSLRLSCAASGSTFQTNARGWYRQAPGKERELVAAITWSGTSTYADSVKGRFTISRDNAKNPGYFQMNSLKPDDTAVYYCAAPILSFPSPYVQYDYWGLGTQVTVSS
polyreactivity (PSR sort gate): low polyreactivity
--
sequence-content: QVQLVESGGGLVQAGGSLRLSFAASGFTFYPYTKGWYRQAPGKEREFVAAISWNCGSTYYADSVKGRFTISRDNAKHTVYLQMNRLKPEDTAVYYCAADFDASRYEYWGQGTQVTVSS
polyreactivity (PSR sort gate): low polyreactivity

Q: Bench note: what polyreactivity (PSR sort gate) did `QVQLVESGGGLVQAGGSLRLSCAASGRIFAFYAMGGYRQAPGKERELVAAITSGGSTKYADSVKGRFTISRDNAKNTVYLHMKSLKPEDTAVYYSAAQYRYQRYSDAMEYWGQGTQVTVSS` show?
A: high polyreactivity

Q: So what's the measured polyreactivity (PSR sort gate) for this one? `QVQLVESGGGIVQAGGSLRLSCAASGSIFSFYAMGWYRQAPGKERELVAAIDVSGGSTYYADSVKGRFTISRDNAKNSVYLQMNSLKPEDTAVYYCAKDVRDQYDYWGQGTQVTVSS`
A: low polyreactivity

Q: What polyreactivity (PSR sort gate) value was documented for this sequence, `QVQLVESGGGLVQAGGSLRLSCAASEFIFARNGMGWYRQAPGKERELVAAITNSGSTYADSVKGRFTISRDNAKNTVYLQMNSLKPEDTAVYYCNKDPGNVSSYTGGGYWGQGTQVTVSS` ?
A: low polyreactivity

====

# assay-text: yeast display, Sf9 membrane polyspecificity reagent, FACS + sequencing; frameworks hold sequencing errors
property-label: polyreactivity (PSR sort gate)

Solved cases below.
sequence-content: QVQLVESGGGLVQAGGSLRLSSAASGRIIRAYAMGWYRQAPGKERELVADISGGSNTNYADSVKGRFTISRDNAKNTVYLQMNSLKPEDTAVYYCAADAGYWESLWYPYGFYWGQGTQVTVSS
polyreactivity (PSR sort gate): low polyreactivity

sequence-content: QVQLVESGGCLVQAGGSLRLSCAASGRIFQAYAMGWYRQAPGKERELVAAINRSGNTNYADSVKGRFTISRDNAKNTVYLQMNSLKPEDTAVYYCAADAVSFSYFGYQRMDYWGQGTQVTVSS
polyreactivity (PSR sort gate): low polyreactivity

sequence-content: QLQLVESGGGLVQAGGSLRLTCAASGSIIWVYAMGWYSQAPGKEWELVAAITSGVSTYYADSVKGRFTISRDHAKNTVSFQMISLKPEDTAVYYCAVVGGFRWIRMEYWGQGTQVTVSS
polyreactivity (PSR sort gate): low polyreactivity

sequence-content: QVQLVESGGGLVQAGGSLRLSCAASGRILGKYAMGWYRQAPGKERELVAAIRLRGGSPYYADSVKGRFTISRDNAKNTVYLQMNSLKPDDTAVYYCAARYWDRSQAYNYWGQGTQVTVSS
polyreactivity (PSR sort gate): high polyreactivity

sequence-content: QVQLEESGGGLVQAGGSLRLSCAASGLTFPSNDMGCYRQAPGKERELVAASSKRGGRTYYADYVKGRFTISRDNAKNTVYLQMNSLKPEDTAVYYCATPYAFPGTVQYAGYNYWGQGTQVTVSS
polyreactivity (PSR sort gate): high polyreactivity

Q: What measured polyreactivity (PSR sort gate) goes with `QVHLVESGGGLVQAGGSLRLSCAASGSTFVTYTMGWYRQAPGKERELVATITASGGSTYYADSVKGRFTISRDNEKNTVYLQMNSLKPEYTAVYYCAKRRSPVERYDFWGQGTQVTVSS` ?
A: low polyreactivity

Q: Request the reported polyreactivity (PSR sort gate) associated with `QVQLVESGGGLVQAGGSLRLSCAASGRIFYYYTMGWYRQAPGKEREVVAAITKGDDDTSYADSVKGRFTISRDNAKNTVYVQMNSLKPEDTAVYYCAVEIVLVPFVVGYDYWGQGTQVTVSS`
A: low polyreactivity

Q: Data request, read-out polyreactivity (PSR sort gate), for `QVQLVESGGGLVQAGGSLRLSCAASGSIIFAYAMGWYRQAPGKERELVAAITTGVSTNYADSVKGRFTISRDNAKNTVYLQMNSLKPEDTAVYYCNADVDYGFDAGVAVQVVIHDYWGQGTQVTVSS`
A: low polyreactivity

Q: Record request: polyreactivity (PSR sort gate) value, item `QVQLVESGGGLVQAGGSLRISCAASGSTFFKNAMGWYRQAPGKERELVAAITWSGDRTYADSVKGRFTISRDNAKNTVYLQMNSLKPEDTAVYYCNVDITGYDDDYWGQGPQVTVSS`
A: low polyreactivity
